Please provide measured Average Survival Time of Treated Animals, days ± SE for the entries that follow.
Test system: L1210 leukemia
Measurement description: Survival time of mice bearing the L1210 leukemia
Format: in vivo, mouse (CDF-1 mice)
Conditions used: 150 mg/kg once daily for six days
Value expressed in days; do not type the unit.

So, CN(NS(=O)(=O)c1ccc2ccccc2c1)S(=O)(=O)c1ccc2ccccc2c1 ? Its Average Survival Time of Treated Animals, days ± SE was 14.0

So, COc1ccc(S(=O)(=O)NN(C)S(=O)(=O)c2ccc(C)cc2)cc1 ? Its Average Survival Time of Treated Animals, days ± SE was 13.2

So, CN(NS(=O)(=O)c1ccccc1)S(=O)(=O)c1ccccc1 ? Its Average Survival Time of Treated Animals, days ± SE was 9.4

So, CN(NS(=O)(=O)c1ccc(Cl)cc1)S(=O)(=O)c1ccc(Cl)cc1 ? Its Average Survival Time of Treated Animals, days ± SE was 11.8

So, Cc1ccc(S(=O)(=O)N(C)NS(=O)(=O)c2ccc(Cl)cc2)cc1 ? Its Average Survival Time of Treated Animals, days ± SE was 11.2

So, COc1ccc(S(=O)(=O)NN(C)S(=O)(=O)c2ccc(OC)cc2)cc1 ? Its Average Survival Time of Treated Animals, days ± SE was 12.2

So, Cc1ccc(S(=O)(=O)N(C)NS(=O)(=O)Cc2ccccc2)cc1 ? Its Average Survival Time of Treated Animals, days ± SE was 14.6

So, Cc1ccc(S(=O)(=O)NN(C)S(=O)(=O)c2ccc(Cl)cc2)cc1 ? Its Average Survival Time of Treated Animals, days ± SE was 10.0

So, COc1ccc(S(=O)(=O)N(C)NS(=O)(=O)c2ccc(C)cc2)cc1 ? Its Average Survival Time of Treated Animals, days ± SE was 10.4

So, Cc1ccc(S(=O)(=O)N(C)NS(=O)(=O)c2ccccc2)cc1 ? Its Average Survival Time of Treated Animals, days ± SE was 10.8

###

Test system: B16 melanoma
Measurement description: Survival time of mice bearing the B16 melanoma
Format: in vivo, mouse (C57B1 mice)
Conditions used: at optimum effective daily dose, B16 mice
Please provide measured Av. Change in wt., % for the entries that follow.
Value expressed in %; do not type the unit.

So, Cc1ccc(S(=O)(=O)NN(C)S(=O)(=O)c2ccc(Cl)cc2)cc1 ? Its Av. Change in wt., % was -0.4

So, CCS(=O)(=O)NN(C)S(=O)(=O)c1ccc(C)cc1 ? Its Av. Change in wt., % was -1.1

###

Tested on: L1210 leukemia
Measurement description: Survival time of mice bearing the L1210 leukemia
Assay type: in vivo, mouse (CDF-1 mice)
Conditions used: Mus musculus, 144 h; 150 mg/kg once daily for six days, L1210; read-out: % T/C
Please provide measured response vs control in vivo at 150 mg/kg for the entries that follow.
Value expressed in %; do not type the unit.

So, Cc1ccc(S(=O)(=O)NN(C)S(=O)(=O)c2ccc(Cl)cc2)cc1 [Compound 5] ? Its response vs control in vivo at 150 mg/kg was 109

So, CN(NS(=O)(=O)c1ccccc1)S(=O)(=O)c1ccccc1 [Compound 7] ? Its response vs control in vivo at 150 mg/kg was 104

So, COc1ccc(S(=O)(=O)N(C)NS(=O)(=O)c2ccc(C)cc2)cc1 [Compound 4] ? Its response vs control in vivo at 150 mg/kg was 113

So, Cc1ccc(S(=O)(=O)N(C)NS(=O)(=O)c2ccccc2)cc1 [Compound 1] ? Its response vs control in vivo at 150 mg/kg was 117

So, Cc1ccc(S(=O)(=O)N(C)NS(=O)(=O)Cc2ccccc2)cc1 [Compound 6] ? Its response vs control in vivo at 150 mg/kg was 159

So, Cc1ccc(S(=O)(=O)N(C)NS(=O)(=O)c2ccc(Cl)cc2)cc1 [Compound 3] ? Its response vs control in vivo at 150 mg/kg was 122

So, COc1ccc(S(=O)(=O)NN(C)S(=O)(=O)c2ccc(C)cc2)cc1 [Compound 2] ? Its response vs control in vivo at 150 mg/kg was 143

So, COc1ccc(S(=O)(=O)NN(C)S(=O)(=O)c2ccc(OC)cc2)cc1 [Compound 9] ? Its response vs control in vivo at 150 mg/kg was 136
